# ratio (OD450 to WT OD450) per record follows
target: Peptide 1593 (…) (Mycobacterium tuberculosis); assay: ELISA, NNK clone supernatant on coated peptide (22 hits)
readout.kind: ratio (OD450 to WT OD450)

binder="65D3 chimeric Fab, NNK library L5 mutant S to K (VL S27K) (Fab, V domains shown) VH: QSLEESGGRLVTPGGSLTLTCTVSGFSLSTHDISWVRQAPGKGLEWIGVIARRGSTYYASWAKGRFTISKTSTTVDLKITSPTIEDTATYFCAREEFDFWGQGTLVTVSS VL: AVLTQTASPVSAAVGGTVTISCQSSQKVYNNKELSWFQQKPGQPPKLLISYASTLASGVPSRFKGSGSGTQFTLTISDLECDDAATYYCLGGYASTIDMWAFGGGTEVVVK" readout_kind="ratio (OD450 to WT OD450)" recorded_result="1.49 fold of WT"
binder="65D3 chimeric Fab, NNK library L2 mutant S to G (VL S24G) (Fab, V domains shown) VH: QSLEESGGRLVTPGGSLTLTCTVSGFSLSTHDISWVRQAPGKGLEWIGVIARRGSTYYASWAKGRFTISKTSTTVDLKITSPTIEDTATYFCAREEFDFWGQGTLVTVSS VL: AVLTQTASPVSAAVGGTVTISCQGSQSVYNNKELSWFQQKPGQPPKLLISYASTLASGVPSRFKGSGSGTQFTLTISDLECDDAATYYCLGGYASTIDMWAFGGGTEVVVK" readout_kind="ratio (OD450 to WT OD450)" recorded_result="1.33 fold of WT"

Each recorded value in this set is attributed to patent US12649778.
